test: NCI Yeast Anticancer Drug Screen. Data for the bub3 strain (AID 167); conditions: S. cerevisiae bub3 mutant strain, active compounds read high; at 50.0 µM unless noted
Compounds without any hit were thinned out: in the full panel of roughly 79,000, 15% have a hit.
measured.metric: growth inhibition (%)
Answers are plain numbers, in %.

Example molecules with recorded growth inhibition:
molecule: CCCn1c(C)nc2c([N+](=O)[O-])cc(C)cc21
unit.abbrev: %
growth inhibition: 13.4

molecule: CN1C(=O)N(C2CCCCC2)C(=O)C(C)(CN2CCCCC2)C1=O (stereo not drawn)
unit.abbrev: %
growth inhibition: -5.25

molecule: CCCCN(C#N)CCCC
unit.abbrev: %
growth inhibition: -16.1

molecule: N=C(N)C1CN(CC=O)C(=O)NC1=O (stereo not drawn)
unit.abbrev: %
growth inhibition: -4.15

For every listed record, write down its growth inhibition.
1. O=C(NCCCl)Nc1c(Cl)cccc1Cl
2. CCOC(=O)c1ccc(Cn2c(C)cc(=O)n(Cc3ccc(C(=O)OCC)cc3)c2=O)cc1

[out]
1: 1.8; 2: 4.05
